TGI reference
# Test system: MOLT-4 leukemia
# EXPERIMENTAL_PROTOCOL: NCI tumour cell line growth inhibition, 48 h

> print(dat)
                                   molecule   assayed.system  endpoint.result
1  Nc1nn2c(nc(N)c3c(N)[nH]nc32)c1N=Nc1ccc(Br)cc1  MOLT-4 leukemia        > 25.9 µM

Enquiry: Notebook: pull reported TGI for MOLT-4 leukemia, entry COC(C(=O)NCCCCNC(=O)C(OC)c1ccccc1)c1ccccc1 (stereo not drawn)
Return: > 100 µM

Enquiry: Notebook: pull reported TGI for MOLT-4 leukemia, entry `CN(C)CCCn1nc(N)c2nc3cc(Cl)ccc3nc21`
Return: > 100 µM
